// provenance: paper PMC12637020

We begin with a simple list: items and their reported inhibition at 1000 µM.
- tgt: UniProt:P22303
- method description: biochemical
- Format: biochemical
- condition: read-out: AChE% inhibition 10^−3 M

# compound structure string, unit name, inhibition at 1000 µM
records = [
    ("C=CCn1c(-c2ccc(C)cc2C)csc1=N/N=C(\\C)c1ccc(N2CCCCC2)cc1", "%", 28.1),
    ("CCn1c(-c2ccc(OC)cc2)csc1=NN=C(C)c1ccc(N2CCCCC2)cc1", "%", 34.1),
    ("C=CCn1c(-c2ccc(OC)cc2)csc1=NN=C(C)c1ccc(N2CCCCC2)cc1", "%", 39.6),
    ("CC(=NN=c1scc(-c2ccc([N+](=O)[O-])cc2)n1C)c1ccc(N2CCCCC2)cc1", "%", 94.6),
    ("C=CCn1c(-c2ccc([N+](=O)[O-])cc2)csc1=NN=C(C)c1ccc(N2CCCCC2)cc1", "%", 67),
    ("CC(=NN=c1scc(-c2ccc(C)cc2C)n1C)c1ccc(N2CCCCC2)cc1", "%", 59.3),
    ("C=CCn1c(-c2ccc(Cl)c(Cl)c2)csc1=N/N=C(\\C)c1ccc(N2CCCCC2)cc1", "%", 31.5),
    ("CCn1c(-c2ccc(Cl)c(Cl)c2)csc1=NN=C(C)c1ccc(N2CCCCC2)cc1", "%", 28.4),
    ("CC(=NN=c1scc(-c2ccc(F)cc2)n1C)c1ccc(N2CCCCC2)cc1", "%", 37.2),
    ("CC(=NN=c1scc(-c2ccc(C#N)cc2)n1C)c1ccc(N2CCCCC2)cc1", "%", 96.8),
    ("COc1ccc(-c2csc(=NN=C(C)c3ccc(N4CCCCC4)cc3)n2C)cc1", "%", 92.6),
    ("C=CCn1c(-c2ccc(F)cc2)csc1=NN=C(C)c1ccc(N2CCCCC2)cc1", "%", 47.2),
    ("CCn1c(-c2ccc(Cl)cc2)csc1=NN=C(C)c1ccc(N2CCCCC2)cc1", "%", 32.3),
    ("CCn1c(-c2ccc([N+](=O)[O-])cc2)csc1=NN=C(C)c1ccc(N2CCCCC2)cc1", "%", 42.8),
    ("C=CCn1c(-c2ccc(Cl)cc2Cl)csc1=NN=C(C)c1ccc(N2CCCCC2)cc1", "%", 39.7),
    ("C=CCn1c(-c2ccc(C)cc2)csc1=NN=C(C)c1ccc(N2CCCCC2)cc1", "%", 38.6),
    ("C=CCn1c(-c2ccc(C#N)cc2)csc1=NN=C(C)c1ccc(N2CCCCC2)cc1", "%", 76),
    ("CC(=NN=c1scc(-c2ccc(Cl)cc2Cl)n1C)c1ccc(N2CCCCC2)cc1", "%", 63.5),
]

----------
This section lists IC50 readings for AChE enzyme (Homo sapiens, UniProt P22303).
measured attribute: IC50

# compound, value measured
measured = [
    ("CC(=NN=c1scc(-c2ccc([N+](=O)[O-])cc2)n1C)c1ccc(N2CCCCC2)cc1 [D1c]", "0.29 µM"),
    ("CC(=NN=c1scc(-c2ccc(Cl)c(Cl)c2)n1C)c1ccc(N2CCCCC2)cc1 [D1h]", "> 1000 µM"),
    ("C=CCn1c(-c2ccc(Cl)cc2)csc1=NN=C(C)c1ccc(N2CCCCC2)cc1 [D2d]", "> 1000 µM"),
]
